study.target: β-tubulin (Homo sapiens)
Construct: endogenous in cells
Sequence (P07437 whole entry): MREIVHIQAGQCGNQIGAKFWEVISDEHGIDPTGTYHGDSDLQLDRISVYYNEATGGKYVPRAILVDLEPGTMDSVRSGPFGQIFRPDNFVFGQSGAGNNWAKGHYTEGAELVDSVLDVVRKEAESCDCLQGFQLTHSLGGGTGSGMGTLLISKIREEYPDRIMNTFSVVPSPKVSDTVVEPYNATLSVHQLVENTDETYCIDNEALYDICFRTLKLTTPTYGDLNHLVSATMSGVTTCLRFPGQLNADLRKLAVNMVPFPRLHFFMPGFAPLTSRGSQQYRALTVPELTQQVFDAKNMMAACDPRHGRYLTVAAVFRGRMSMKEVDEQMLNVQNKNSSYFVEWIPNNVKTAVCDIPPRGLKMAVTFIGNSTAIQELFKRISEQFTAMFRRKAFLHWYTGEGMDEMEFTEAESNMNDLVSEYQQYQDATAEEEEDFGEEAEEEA
Sequence (P68363 whole entry partner): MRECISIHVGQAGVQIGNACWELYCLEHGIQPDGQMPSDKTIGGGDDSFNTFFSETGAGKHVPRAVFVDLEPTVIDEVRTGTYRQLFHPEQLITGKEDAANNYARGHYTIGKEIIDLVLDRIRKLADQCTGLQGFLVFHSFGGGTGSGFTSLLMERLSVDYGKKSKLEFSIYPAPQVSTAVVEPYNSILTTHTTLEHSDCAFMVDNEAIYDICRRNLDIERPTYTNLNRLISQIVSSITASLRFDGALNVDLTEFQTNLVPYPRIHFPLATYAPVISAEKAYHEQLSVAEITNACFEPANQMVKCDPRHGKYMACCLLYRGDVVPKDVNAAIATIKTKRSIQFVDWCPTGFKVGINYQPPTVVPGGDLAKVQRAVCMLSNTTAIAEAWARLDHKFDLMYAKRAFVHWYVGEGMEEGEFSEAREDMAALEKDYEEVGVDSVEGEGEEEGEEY
protocol: Tubulin polymerization inhibition (ELISA for TUBb, SR cell line)
experimental.parameters: IC50 ± SEM
pIC50: −log10 of the molar value.
readout.type: pIC50

[[record]]
compound = "COC(=O)C=C1SC(=NNC(=O)c2cc3ccc2CCc2ccc(cc2)CC3)N(c2ccccc2)C1=O [Compound 3a]"
readout_type = "pIC50"
assay_value = 5.30

[[record]]
compound = "C=CCN1C(=O)C(=CC(=O)OC)SC1=NNC(=O)c1cc2ccc1CCc1ccc(cc1)CC2 [Compound 3d]"
readout_type = "pIC50"
assay_value = 4.83

[[record]]
compound = "COC(=O)C=C1SC(=NNC(=O)c2cc3ccc2CCc2ccc(cc2)CC3)N(Cc2ccccc2)C1=O [Compound 3b]"
readout_type = "pIC50"
assay_value = 5.08

[[record]]
compound = "CCN1C(=O)C(=CC(=O)OC)SC1=NNC(=O)c1cc2ccc1CCc1ccc(cc1)CC2 [Compound 3e]"
readout_type = "pIC50"
assay_value = 5.18


Source of measurements: paper PMC7411887
